# assayNotes: Cytotoxicity against human PC3 cells assessed as inhibition of cell viability at 25 uM after 48 hrs by MTT assay relative to control
# Type: functional
# experimentalConditions: PC-3, 48 h
Mark no (0) for inhibition at 25 µM values under 20%, and yes (1) for everything at or above.

Lookup: Does the reported inhibition at 25 µM for COc1c(-c2cccc(C)c2)c(C)nn1-c1ccccc1 fall at or above the 20% mark?
Found: yes (1)

Lookup: Does the reported inhibition at 25 µM for COCc1ccccc1-c1c(C)nn(-c2ccccc2)c1OC fall at or above the 20% mark?
Found: yes (1)

Further cases:
Lookup: Does the reported inhibition at 25 µM for COc1cc(C)nn1-c1ccccc1 fall at or above the 20% mark?
Found: no (0)

Lookup: Does the reported inhibition at 25 µM for COc1c(-c2ccccc2)c(C)nn1-c1ccccc1 fall at or above the 20% mark?
Found: no (0)

Lookup: Does the reported inhibition at 25 µM for COc1c(-c2csc3ccccc23)c(C)nn1-c1ccccc1 fall at or above the 20% mark?
Found: yes (1)
